Collected pIC50 for Proto-oncogene tyrosine-protein kinase Src (Homo sapiens, UniProt P12931) across several studies; compounds listed below.
pIC50: −log10 of the molar value.
readout type: pIC50

INSERT INTO measurements (compound, result) VALUES
  ('OCc1ccc(Nc2ncnc(Nc3cc(-c4ccco4)n[nH]3)n2)cc1', '5.16 to 5.94'),
  ('Cc1n[nH]c2cc(Nc3nccc(Oc4ccc(NC(=O)Nc5cc(C(C)(C)C)nn5-c5ccc(OCCN6CCOCC6)cc5)c5ccccc45)n3)ccc12', 7.92),
  ('CN1CCN(c2ccc(Nc3ncc4ncc(=O)n(C5CCCC5)c4n3)cc2)CC1', 5.47),
  ('COc1cccc(Cc2c[nH]c3nccc(Br)c23)c1', '≥ 5.00'),
  ('Cc1ccc(NC(=O)Nc2cccc(C(F)(F)F)c2)cc1C(=O)Nc1cnc(Nc2cccc(OCCN3CCCC3)c2)nc1', 8.74),
  ('N#Cc1nc2nc(Nc3cccc(S(=O)(=O)CCO)c3)ncc2cc1-c1ccccc1Br', 7.79),
  ('COc1cc(Nc2cc(Oc3ccc(NC(=O)Nc4cc(C(C)(C)C)cc(P(C)(C)=O)c4OC)c4ccccc34)ccn2)cc(S(=O)(=O)N(C)CCN2CCOCC2)c1', 7.11),
  ('Cc1ccc(NC(=O)c2ccccc2)cc1C(=O)Nc1cnc2[nH]c(-c3ccccc3)nc2c1', '7.00 to 8.00'),
  ('COc1cc(Nc2ncnc(-n3c(NCCc4ccccn4)nc4ccccc43)n2)cc(OC)c1OC', '< 5.04'),
  ('Cn1cc(-c2cnc3[nH]cc(C(=O)c4cc(NS(=O)(=O)c5cccc(Cl)c5)ccc4F)c3c2)cn1', '≥ 5.00'),
  ('CC(C)[C@H](N)C(=O)OCCOCCOc1cc2ncn(-c3ccc(C#N)cn3)c2nc1NC1CCOCC1', 6.54),
  ('CN(C)S(=O)(=O)Nc1ccc(F)c(C(=O)c2c[nH]c3ncc(-c4ccccc4)cc23)c1F', '≥ 5.00'),
  ('CCC(C)S(=O)(=O)Nc1ccc(F)c(C(=O)c2c[nH]c3nccc(C#N)c23)c1F (stereo not drawn)', '≥ 5.00'),
  ('Cn1c(=O)c(-c2c(Cl)cccc2Cl)cc2cnc(Nc3ccncc3)cc21', 6.26),
  ('C=CC(=O)N1CCC(C#Cc2c(-c3cnc(Oc4ccccc4)nc3)c3c(N)ncnc3n2C(C)C)CC1', '5.00 to 6.00'),
  ('C=CC(=O)N1CC[C@@H](N2CC(C#Cc3c(-c4ccc(OC(C)C)c(OC)c4)c4c(N)ncnc4n3C)C2)[C@@H](O)C1', '6.00 to 8.00'),
  ('CC(=O)Nc1ccc(C(=O)Nc2sc(Nc3ccccc3)nc2C(N)=O)cc1', '< 6.52'),
  ('CCCS(=O)(=O)Nc1ccc(F)c(C(=O)c2c[nH]c3ncc(-c4ccc(N5CCCC5)nc4)cc23)c1F', '≥ 5.00'),
  ('CCCS(=O)(=O)Nc1ccc(F)c(C(=O)c2c[nH]c3ncc(-c4ccc(OCCCN5CCOCC5)nc4)cc23)c1F', '≥ 5.00'),
  ('Cc1ccc(NC(=O)c2cccc(C(F)(F)F)c2)cc1Nc1cnc(Nc2cccc(CCCN3CCCC3)c2)nc1', 6.12),
  ('COCCOCCOCCNC(=O)c1cc(Nc2cc(Oc3ccc(NC(=O)Nc4cc(C(C)(C)C)nn4-c4ccc(C)cc4)c4ccccc34)ccn2)cc(OC)c1', 7.72),
  ('CCCS(=O)(=O)Nc1cccc(C(=O)c2c[nH]c3ncc(Br)cc23)c1F', '≥ 5.00'),
  ('COc1cnc2[nH]cc(C(=O)c3c(F)ccc(NS(=O)(=O)c4ccccc4F)c3F)c2c1', '≥ 5.00'),
  ('C=CC(=O)Nc1cccc(CNc2nc(Nc3ccc(N4CCN(C)CC4)cc3)ncc2C(=O)Nc2c(C)cccc2Cl)c1', '7.00 to 8.00'),
  ('CC(C)N1Cc2c(ccc(F)c2C#N)O[C@@H](C)CNC(=O)c2c(N)nn3ccc1nc23', 9.08),
  ('CC(C)c1cc(NC(=O)Nc2ccc(Oc3ccnc(Nc4ccc5[nH]ncc5c4)n3)c3ccccc23)n(-c2cccc(OCCN3CCOCC3)c2)n1', 8.40),
  ('CCCS(=O)(=O)Nc1ccc(F)c(C(=O)c2c[nH]c3ncc(-c4ccc(S(=O)(=O)NC)cc4)cc23)c1F', '≥ 5.00'),
  ('NC(=O)c1ccc(Nc2ncnc(-c3cccnc3NCc3ccccc3)n2)cc1', '< 4.95'),
  ('COC(=O)c1cc2cc(NCc3ccccc3Br)cnc2[nH]1', '5.00 to 7.00'),
  ('CN(C)C/C=C/C(=O)N1CC(C#Cc2c(-c3ccc(Oc4ccccc4)cc3)c3c(N)ncnc3n2C2CCOC2)C1 (stereo not drawn)', '6.00 to 8.00');

###

# literature pull: Proto-oncogene tyrosine-protein kinase Src (Homo sapiens) pIC50
pIC50: −log10 of the molar value.
readout type: pIC50

INSERT INTO measurements (compound, readout_type, result) VALUES
  ('C#Cc1cc(Nc2cc(Oc3ccc(NC(=O)Nc4cc(C(C)(C)C)cc(P(C)(C)=O)c4OC)c4ccccc34)ccn2)cc(C(=O)NCCOCCOCCOC)c1', 'pIC50', 7.42),
  ('COc1cc(Nc2ncnc(-n3c(NCc4ccc([N+](=O)[O-])cc4)nc4ccccc43)n2)cc(OC)c1OC', 'pIC50', '5.07 to 5.18'),
  ('C=CC(=O)N1CCC(C#Cc2c(-c3ccc(Oc4ccccc4)cc3)c3c(N)ncnc3n2[C@@H](C)CO)CC1 (single isomer, unassigned)', 'pIC50', '6.00 to 8.00'),
  ('COc1c(NC(=O)Nc2ccc(Oc3ccnc(Nc4ccc(C(=O)NCCN5CCOCC5)cc4)c3)c3ccccc23)cc(C(C)(C)C)cc1NS(C)(=O)=O', 'pIC50', 7.49),
  ('COc1ccnc2[nH]cc(C(=O)c3c(F)ccc(NS(=O)(=O)c4ccc(F)cc4F)c3F)c12', 'pIC50', '≥ 5.00'),
  ('COc1cc(Nc2ncnc(Nc3nnc(-c4ccccc4)[nH]3)n2)cc(OC)c1OC', 'pIC50', '< 4.97'),
  ('Cn1cc(-c2cnc3[nH]cc(C(=O)c4c(F)ccc(NS(=O)(=O)C(F)(F)F)c4F)c3c2)cn1', 'pIC50', '≥ 5.00');

###

Literature compilation of IC50 measurements on Proto-oncogene tyrosine-protein kinase Src (Homo sapiens, UniProt P12931).
readout type: IC50

INSERT INTO assay_data (compound, readout_type, result) VALUES
  ('COc1cc(Nc2ncnc(Nc3cc(OC)c(OC)c(OC)c3)n2)cc(OC)c1OC', 'IC50', '< 902 nM'),
  ('O=[N+]([O-])c1cccc(C(O)c2c[nH]c3ncc(-c4cccnc4)cc23)c1 (stereo not shown)', 'IC50', '≤ 10000 nM'),
  ('O=C(c1c(F)ccc(NS(=O)(=O)C2CC2)c1F)c1c[nH]c2ncc(-c3ccc(F)cc3)cc12', 'IC50', '≤ 10000 nM'),
  ('C=CC(=O)N1CCC(N2CC(C#Cc3c(-c4ccc(Oc5ccccc5)cc4OC)c4c(N)ncnc4n3C)C2)CC1', 'IC50', '10 to 1000 nM'),
  ('C=CC(=O)N(C)CC(=O)N1CCC(C#Cc2c(-c3ccc(Oc4ccccc4)cc3)c3c(N)ncnc3n2C)CC1', 'IC50', '10 to 1000 nM'),
  ('NC(=O)c1nc2nc(Nc3ccc(N4CCOCC4)cc3)ncc2cc1-c1ccccc1Br', 'IC50', '3 nM'),
  ('CNCCCNC(=O)c1nc2nc(Nc3ccc(F)cc3)ncc2cc1-c1ccccc1Br', 'IC50', '42.8 nM'),
  ('C=CC(=O)N1CCC(C#Cc2c(-c3ccc(Oc4ccccc4)cc3)c3c(N)ncnc3n2C2CCOCC2)CC1', 'IC50', '10 to 1000 nM'),
  ('CNC(=O)CNC(=O)c1nc2nc(Nc3ccc(F)cc3)ncc2cc1-c1ccccc1Br', 'IC50', '130 nM'),
  ('O=C(c1c(F)ccc(NS(=O)(=O)C2CCCCC2)c1F)c1c[nH]c2ncc(Cl)cc12', 'IC50', '≤ 10000 nM'),
  ('COc1ncc(-c2cnc3[nH]cc(C(=O)c4c(F)ccc(NS(=O)(=O)N(C)C)c4F)c3c2)cn1', 'IC50', '≤ 10000 nM'),
  ('NC(=O)c1cccc(Nc2ncnc(Nc3cc(-c4ccco4)n[nH]3)n2)c1', 'IC50', '> 12400 nM'),
  ('Cc1ccc(-n2nc(C(C)(C)C)cc2NC(=O)Nc2ccc(OCc3ccnc(Nc4cncc(C5CCCC5)n4)c3)c3ccccc23)cc1', 'IC50', '459 nM'),
  ('CCCS(=O)(=O)Nc1ccc(F)c(C(=O)c2c[nH]c3ncc(-c4ccc(S(=O)(=O)N(C)C)cc4)cc23)c1F', 'IC50', '≤ 10000 nM'),
  ('Cc1cccc(Nc2ncnc(Nc3ccc(O)cc3)n2)c1', 'IC50', '< 1360 nM'),
  ('Cc1cccc(C)c1C(=O)c1c[nH]c2ncc(-c3cccnc3)cc12', 'IC50', '≤ 10000 nM'),
  ('CCCS(=O)(=O)Nc1ccc(F)c(C(O)c2c[nH]c3ncc(-c4ccc(C(=O)NCC)nc4)cc23)c1F (stereo not shown)', 'IC50', '≤ 10000 nM'),
  ('CNCCNC(=O)c1nc2nc(Nc3ccc(N4CCOCC4)cc3)ncc2cc1-c1ccccc1Br', 'IC50', '1 nM'),
  ('COc1ccc(Nc2ncccc2-c2ncnc(Nc3cc(OC)c(OC)c(OC)c3)n2)c(C)c1', 'IC50', '> 9480 nM'),
  ('Cc1ccc(NC(=O)c2c(F)cc(F)cc2F)cc1C(=O)Nc1cnc(Nc2cccc(CCCN3CCCC3)c2)nc1', 'IC50', '102 nM'),
  ('CN1C(=O)N(c2cc(NC(=O)c3ccc(-c4ccccn4)cc3)ccc2Cl)Cc2cnc(N)nc21', 'IC50', '50 to 150 nM'),
  ('O=C(c1c(F)ccc(NS(=O)(=O)c2cccc(OC(F)F)c2)c1F)c1c[nH]c2ncc(Cl)cc12', 'IC50', '≤ 10000 nM'),
  ('CC(C)(C)c1cc(NC(=O)Nc2ccc(Oc3ccnc(Nc4ccc5[nH]ccc5c4)n3)c3ccccc23)n(-c2cccc(CN3CCCC3=O)c2)n1', 'IC50', '4 nM'),
  ('COc1c(CNC(C)=O)cc(C(C)(C)C)cc1NC(=O)Nc1ccc(Oc2ccnc(Nc3cc(OCCN4CCOCC4)cc(C(F)(F)F)c3)c2)c2ccccc12', 'IC50', '235 nM'),
  ('COc1cnc2[nH]cc(C(=O)c3c(F)ccc(NS(=O)(=O)c4cc(F)ccc4F)c3F)c2c1', 'IC50', '≤ 10000 nM'),
  ('CS(=O)(=O)NCCNC(=O)c1nc2nc(Nc3ccc(OCCO)cc3)ncc2cc1-c1c(Cl)cccc1Cl', 'IC50', '1.1 nM'),
  ('Cc1cc(Cn2c(-c3ccccc3Cl)cc3cnc(Nc4ccc(N5CCN(C)CC5)cc4)nc3c2=O)nn1C', 'IC50', '1 to 500 nM'),
  ('Cc1ccccc1-c1cc2cnc(Nc3ccc(N4CCOCC4)cc3)nc2c(=O)n1C', 'IC50', '2.9 nM'),
  ('COc1ccc(F)c(C(=O)c2c[nH]c3ncc(-c4cccc(NC(C)=O)c4)cc23)c1F', 'IC50', '≤ 10000 nM'),
  ('COc1cc(Nc2cc(Oc3ccc(NC(=O)Nc4cc(C(C)(C)C)cc(CNC(C)=O)c4OC)c4ccccc34)ccn2)cc(OC)c1', 'IC50', '67 nM'),
  ('C=CC(=O)N1CC[C@@H](N2CC(F)(C#Cc3c(-c4ccc(Oc5ccccc5)cc4)c4c(N)ncnc4n3C)C2)C[C@H]1CO', 'IC50', '10 to 1000 nM');
